Assay target: Serine/threonine-protein kinase PAK 2 (Homo sapiens) (UniProt Q13177);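 further: reported values are mean inhibition of PAK2, averaged over measurements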
Sequence (Q13177 whole entry): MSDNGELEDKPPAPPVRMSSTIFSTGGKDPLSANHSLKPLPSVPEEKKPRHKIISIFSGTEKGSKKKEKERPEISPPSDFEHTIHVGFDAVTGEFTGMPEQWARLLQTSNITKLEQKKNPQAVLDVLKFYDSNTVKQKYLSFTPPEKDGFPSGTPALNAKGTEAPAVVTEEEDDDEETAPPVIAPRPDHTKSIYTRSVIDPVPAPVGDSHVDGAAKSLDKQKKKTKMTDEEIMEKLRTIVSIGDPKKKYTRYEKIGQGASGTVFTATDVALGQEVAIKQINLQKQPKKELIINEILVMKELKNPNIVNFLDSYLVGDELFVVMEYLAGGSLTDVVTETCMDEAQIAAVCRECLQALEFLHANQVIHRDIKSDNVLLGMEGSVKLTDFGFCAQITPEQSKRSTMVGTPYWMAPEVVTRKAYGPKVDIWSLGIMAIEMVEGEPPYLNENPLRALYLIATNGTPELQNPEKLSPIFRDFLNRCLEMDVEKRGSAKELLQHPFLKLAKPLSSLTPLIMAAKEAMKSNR
Recorded conditions: at 1 µM
Experimental endpoint: inhibition (%)

>  <Chem smiles>
Fc1ccc(-c2nc3n(c2-c2ccncc2)CCS3)cc1

>  <Experimental endpoint>
inhibition

>  <Unit info>
%

>  <Val>
1.6

$$$$
>  <Chem smiles>
COc1cc2ncn(-c3cc(OCc4cccs4)c(C(N)=O)s3)c2cc1OC

>  <Experimental endpoint>
inhibition

>  <Unit info>
%

>  <Val>
0.03

$$$$
>  <Chem smiles>
CN(C)CCCNc1nccc(-c2c(-c3ccc(F)cc3)nn3cc(C(F)(F)F)ccc23)n1

>  <Experimental endpoint>
inhibition

>  <Unit info>
%

>  <Val>
1.67

$$$$
>  <Chem smiles>
COc1cc(Nc2ncc(-c3ccccc3)o2)cc(OC)c1OC

>  <Experimental endpoint>
inhibition

>  <Unit info>
%

>  <Val>
-0.61

$$$$
>  <Chem smiles>
O=C(Nc1n[nH]c2cc(-c3cc(F)ccc3F)ccc12)C1CC1

>  <Experimental endpoint>
inhibition

>  <Unit info>
%

>  <Val>
2.22

$$$$
>  <Chem smiles>
COc1ccc2cc(-c3c(-c4ccncc4)nc(-c4ccc(S(C)(=O)=O)cc4C)n3C)ccc2c1

>  <Experimental endpoint>
inhibition

>  <Unit info>
%

>  <Val>
2.16

$$$$
>  <Chem smiles>
NS(=O)(=O)c1ccc(Nc2cc(-c3ccc(O)c(F)c3)n[nH]2)cc1

>  <Experimental endpoint>
inhibition

>  <Unit info>
%

>  <Val>
-1.29

$$$$
>  <Chem smiles>
COc1cc(N2CCN(C(C)C)CC2)ccc1Nc1nc(Nc2ccc(F)cc2C(=O)NC[C@@H](O)CO)c2cc[nH]c2n1

>  <Experimental endpoint>
inhibition

>  <Unit info>
%

>  <Val>
1.54

$$$$
>  <Chem smiles>
NC(=O)c1ccc(Oc2nccc(-c3c(-c4ccc(F)cc4)ncn3C3CCNCC3)n2)cc1

>  <Experimental endpoint>
inhibition

>  <Unit info>
%

>  <Val>
2.2

$$$$
>  <Chem smiles>
COc1ccc2ncn(-c3cc(O[C@H](C)c4ccccc4Cl)c(C(N)=O)s3)c2c1

>  <Experimental endpoint>
inhibition

>  <Unit info>
%

>  <Val>
1.19

$$$$
>  <Chem smiles>
COc1cc2ncn(-c3cc(OCc4ccccc4C(F)(F)F)c(C(C)=O)s3)c2cc1OC

>  <Experimental endpoint>
inhibition

>  <Unit info>
%

>  <Val>
1.29

$$$$
>  <Chem smiles>
O=C1NC(=O)C(c2cccc(Cl)c2)=C1Nc1ccc(Cl)c(C(=O)O)c1

>  <Experimental endpoint>
inhibition

>  <Unit info>
%

>  <Val>
0.87

$$$$
>  <Chem smiles>
Cc1ccc(C(=O)NC2CCC2)cc1-c1ccc(C(=O)NCC2CC2)cc1

>  <Experimental endpoint>
inhibition

>  <Unit info>
%

>  <Val>
2.3

$$$$
>  <Chem smiles>
C#Cc1cccc(Nc2ncnc3ccc(OCCCCNCCS(C)(=O)=O)cc23)c1

>  <Experimental endpoint>
inhibition

>  <Unit info>
%

>  <Val>
1.48

$$$$
